The measurements presented in this section are drawn from PubChem BioAssay (Tox21).

- procedure.details: qHTS assay for identifying genotoxic compounds that show differential cytotoxicity against isogenic chicken DT40 cell lines with known DNA damage response pathways - wild type cell line (AID 743012); note: nearly all actives have a fitted effect of over 60% in size
- measurement.conditions: DT40 wild type chicken cells viability, CellTiter-Glo, 40 h; series mostly up to 68.4 µM
Results filed as inconclusive are left out. The source made the active and inactive calls. Calls come from the whole dose curve; as a rule, active = well fitted cell-killing curve with a large enough effect in the repeat runs; inconclusive = weak or mixed curves, or effect the other way; inactive = no such curve, though single readings can be large or run the other way.
Classes used: 1 (active), -1 (inactive)

# compound.structure, discrete.label
data = [
    ("CCCOc1sc(C(=O)N2CCC(c3cc(CN)ccc3F)CC2)c(C)c1Br", 1),
    ("CC(C)(C)c1cc(/C=C2\\SC(=N)NC2=O)cc(C(C)(C)C)c1O", 1),
    ("NCCCCCCNCCCCCCN", 1),
    ("Cc1cccc(C)c1NC(=O)CN1CCN(CCCC(c2ccc(F)cc2)c2ccc(F)cc2)CC1", 1),
    ("Cc1c(C(=O)O)cccc1[N+](=O)[O-]", 1),
    ("Cc1cccc(Br)c1", -1),
]
